target: T1, Full length human HtrA1 (HuHtrA1) (Q23-P480), N-terminal His6 tag (human, UniProt Q92743 23-480); experiment: SPR (BIAcore T100), single-cycle kinetics, biotinylated human HtrA1 captured on streptavidin, Fab in solution
T1 construct: Expressed in Trichoplusia ni insect cells
T1 sequence (Q92743 other isoform, or with tags, fused parts or gaps): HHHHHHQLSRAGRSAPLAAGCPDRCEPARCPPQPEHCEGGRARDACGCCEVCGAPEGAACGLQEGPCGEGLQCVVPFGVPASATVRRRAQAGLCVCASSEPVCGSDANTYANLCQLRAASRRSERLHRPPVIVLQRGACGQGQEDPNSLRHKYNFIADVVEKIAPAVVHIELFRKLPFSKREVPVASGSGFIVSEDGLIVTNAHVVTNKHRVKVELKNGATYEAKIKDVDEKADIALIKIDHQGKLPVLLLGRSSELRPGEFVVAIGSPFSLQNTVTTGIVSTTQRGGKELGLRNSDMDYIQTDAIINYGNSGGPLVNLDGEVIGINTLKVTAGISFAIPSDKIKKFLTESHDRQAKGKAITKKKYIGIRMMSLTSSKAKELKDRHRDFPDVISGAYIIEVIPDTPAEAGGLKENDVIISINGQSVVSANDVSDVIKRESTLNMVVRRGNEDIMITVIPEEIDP
property: kon (M⁻¹ s⁻¹)
Respond numerically; units are M⁻¹ s⁻¹ and should not be typed.

>  <binder>
Fab94 (anti-HtrA1 antibody YW505.94, Fab format) (Fab, V domains shown) VH: EVQLVESGGGLVQPGGSLRLSCAASGFNISGYYIHWVRQAPGKGLEWVGWIDPYGGDTNYADSVKGRFTISADTSKNTAYLQMNSLRAEDTAVYYCARGTFLTSWGHYFDYWGQGT VL: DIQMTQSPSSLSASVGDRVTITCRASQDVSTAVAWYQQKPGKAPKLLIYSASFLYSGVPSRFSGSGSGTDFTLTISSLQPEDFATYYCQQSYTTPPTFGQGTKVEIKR

>  <kon, M⁻¹ s⁻¹>
351000

$$$$
>  <binder>
YW505.94a.28 Fab (Fab, V domains shown) VH: EVQLVESGGGLVQPGGSLRLSCAASGFSISGYYIHWVRQAPGKGLEWVGWIDPYGGDTNYADSVKGRFTISADTSKNTAYLQMNSLRAEDTAVYYCARGTFLTSWGHYFDYWGQGT VL: DIQMTQSPSSLSASVGDRVTITCRASQSINTYLAWYQQKPGKAPKLLIYSASFLYSGVPSRFSGSGSGTDFTLTISSLQPEDFATYYCQQSDDTPPTFGQGTKVEIKR

>  <kon, M⁻¹ s⁻¹>
1.69e+06

$$$$
>  <binder>
YW505.94a Fab (Fab, V domains shown, Tested as Fab) VH: EVQLVESGGGLVQPGGSLRLSCAASGFSISGYYIHWVRQAPGKGLEWVGWIDPYGGDTNYADSVKGRFTISADTSKNTAYLQMNSLRAEDTAVYYCARGTFLTSWGHYFDYWGQGT VL: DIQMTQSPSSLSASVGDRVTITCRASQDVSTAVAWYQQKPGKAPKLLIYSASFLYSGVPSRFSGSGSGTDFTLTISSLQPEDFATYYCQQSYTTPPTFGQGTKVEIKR

>  <kon, M⁻¹ s⁻¹>
813000

$$$$

Shifting focus to the binder that follows.
Return reported kon; argument: YW505.94a.54 Fab (Fab, V domains shown) VH: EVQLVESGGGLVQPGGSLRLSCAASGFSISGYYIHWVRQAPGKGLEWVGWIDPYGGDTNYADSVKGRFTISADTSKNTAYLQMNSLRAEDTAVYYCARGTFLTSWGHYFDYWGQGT VL: DIQMTQSPSSLSASVGDRVTITCRASQVVGNYLAWYQQKPGKAPKLLIYSASFLYSGVPSRFSGSGSGTDFTLTISSLQPEDFATYYCQQSDDHPPTFGQGTKVEIKR
2.97e+06
